EXPERIMENT_DESCRIPTION: Approximate solubility in solvents at 25° C. and 50° C. by visual observation
Format: physicochemical
SETUP_CONDITIONS: organic solvent or mixture, thermodynamic from solid; Tetrahydrofuran (THF), 25° C.; read-out: Solubility
PROPERTY_LABEL: Solubility

{"COMPOUND": "CCOC(=O)[C@H](C)NP(=O)(COCCn1cnc2c(OC)nc(N)nc21)OCc1ccccc1 (stereo partly shown) [Compound I]", "RESULT": "> 100 mg/mL"}

----------
EXPERIMENT_DESCRIPTION: Approximate solubility in solvents at 25° C. and 50° C. by visual observation
Format: physicochemical
SETUP_CONDITIONS: organic solvent or mixture, thermodynamic from solid; Methyl t-butyl ether (MTBE), 50° C.; read-out: Solubility
PROPERTY_LABEL: Solubility

{"COMPOUND": "CCOC(=O)[C@H](C)NP(=O)(COCCn1cnc2c(OC)nc(N)nc21)OCc1ccccc1 (stereo partly shown)", "PROPERTY_LABEL": "Solubility", "RESULT": "< 10000 µg/mL"}

----------
EXPERIMENT_DESCRIPTION: Approximate solubility in solvents at 25° C. and 50° C. by visual observation
Assay type: physicochemical
SETUP_CONDITIONS: thermodynamic from solid; Water, 25° C.; read-out: Solubility

{"COMPOUND": "CCOC(=O)[C@H](C)NP(=O)(COCCn1cnc2c(OC)nc(N)nc21)OCc1ccccc1 (stereo partly shown)", "Solubility": "20 to 25 mg/mL"}

----------
EXPERIMENT_DESCRIPTION: Approximate solubility in solvents at 25° C. and 50° C. by visual observation
Type: physicochemical
SETUP_CONDITIONS: organic solvent or mixture, thermodynamic from solid; Ethyl acetate (EA), 25° C.; read-out: Solubility

{"COMPOUND": "CCOC(=O)[C@H](C)NP(=O)(COCCn1cnc2c(OC)nc(N)nc21)OCc1ccccc1 (stereo partly shown)", "Solubility": "> 100 mg/mL"}

----------
EXPERIMENT_DESCRIPTION: Approximate solubility in solvents at 25° C. and 50° C. by visual observation
Assay type: physicochemical
SETUP_CONDITIONS: organic solvent or mixture, thermodynamic from solid; Isopropanol (IPA), 50° C.; read-out: Solubility
Procedure: The maximum volume of each solvent added was 1 mL. Approximate solubility was determined by visual observation. Maximum volume of each solvent added was 1 mL. Approximate solubility was determined by visual observation.
PROPERTY_LABEL: Solubility

{"MOLECULE": "CCOC(=O)[C@H](C)NP(=O)(COCCn1cnc2c(OC)nc(N)nc21)OCc1ccccc1 (stereo partly shown)", "RESULT": "> 500 mg/mL"}

----------
EXPERIMENT_DESCRIPTION: Approximate solubility in solvents at 25° C. and 50° C. by visual observation
Format: physicochemical
SETUP_CONDITIONS: organic solvent or mixture, thermodynamic from solid; Methanol (MeOH), 25° C.; read-out: Solubility

{"COMPOUND": "CCOC(=O)[C@H](C)NP(=O)(COCCn1cnc2c(OC)nc(N)nc21)OCc1ccccc1 (stereo partly shown)", "Solubility": "> 100 mg/mL"}

----------
EXPERIMENT_DESCRIPTION: Approximate solubility in solvents at 25° C. and 50° C. by visual observation
Format: physicochemical
SETUP_CONDITIONS: organic solvent or mixture, thermodynamic from solid; Ethanol (EtOH), 25° C.; read-out: Solubility

{"COMPOUND": "CCOC(=O)[C@H](C)NP(=O)(COCCn1cnc2c(OC)nc(N)nc21)OCc1ccccc1 (stereo partly shown)", "Solubility": "> 100 mg/mL"}

----------
EXPERIMENT_DESCRIPTION: Hygroscicity by Dynamic Vapor Sorption (DVS) at 25° C.
Assay type: physicochemical
SETUP_CONDITIONS: up to 95% RH, DVS 25° C.

{"COMPOUND": "CCOC(=O)C(C)NP(=O)(COCCn1cnc2c(OC)nc(N)nc21)OCc1ccccc1.CCOC(=O)C(C)NP(=O)(COCCn1cnc2c(OC)nc(N)nc21)OCc1ccccc1.O=C(O)C=CC(=O)O (mixture of isomers) [Compound I Hemifumarate Pattern 1]", "Water uptake": "~6.9%"}

----------
Tested on: Hs27 cells
EXPERIMENT_DESCRIPTION: In vitro cytotoxicity, XTT, five days
Below, each of the molecules is paired with its reported CC50 value.

{"MOLECULE": "CCOC(=O)C(C)NP(=O)(COCCn1cnc2c(OC)nc(N)nc21)OCc1ccccc1 (single isomer, unassigned; isomer 2) [ABl2280 Isomer 2]", "ASSAYED_TARGET": "Hs27 cells", "CC50": "7.62 µM"}
{"MOLECULE": "CCOC(=O)C(C)NP(=O)(COCCn1cnc2c(OC)nc(N)nc21)OCc1ccccc1 (single isomer, unassigned; isomer 1) [ABl2280 Isomer 1]", "ASSAYED_TARGET": "Hs27 cells", "CC50": "23.2 µM"}

----------
EXPERIMENT_DESCRIPTION: Approximate solubility in solvents at 25° C. and 50° C. by visual observation
Format: physicochemical
SETUP_CONDITIONS: organic solvent or mixture, thermodynamic from solid; Dichloromethane (DCM), 50° C.; read-out: Solubility

{"COMPOUND": "CCOC(=O)[C@H](C)NP(=O)(COCCn1cnc2c(OC)nc(N)nc21)OCc1ccccc1 (stereo partly shown) [Compound I]", "Solubility": "> 500 mg/mL"}

----------
Test system: Hs27 cells
EXPERIMENT_DESCRIPTION: In vitro cytotoxicity, XTT, five days
SETUP_CONDITIONS: read-out: Hs27 CC50; Hs27 cells, XTT, five days
PROPERTY_LABEL: CC50 (µM)

{"COMPOUND": "CCOC(=O)C(C)NP(=O)(COCCn1cnc2c(OC)nc(N)nc21)OCc1ccccc1 (mixture of isomers)", "PROPERTY_LABEL": "CC50", "UNITS_OF_MEASURE": "µM", "RECORDED_NUMBER": 22.9}

----------
EXPERIMENT_DESCRIPTION: Approximate solubility in solvents at 25° C. and 50° C. by visual observation
Format: physicochemical
SETUP_CONDITIONS: thermodynamic from solid; Water, 50° C.; read-out: Solubility
Description: The maximum volume of each solvent added was 1 mL. Approximate solubility was determined by visual observation. Maximum volume of each solvent added was 1 mL. Approximate solubility was determined by visual observation.

{"COMPOUND": "CCOC(=O)[C@H](C)NP(=O)(COCCn1cnc2c(OC)nc(N)nc21)OCc1ccccc1 (stereo partly shown)", "Solubility": "25 to 27 mg/mL"}

----------
EXPERIMENT_DESCRIPTION: Approximate solubility in solvents at 25° C. and 50° C. by visual observation
Assay type: physicochemical
SETUP_CONDITIONS: organic solvent or mixture, thermodynamic from solid; Acetonitrile (ACN), 50° C.; read-out: Solubility

{"COMPOUND": "CCOC(=O)[C@H](C)NP(=O)(COCCn1cnc2c(OC)nc(N)nc21)OCc1ccccc1 (stereo partly shown)", "Solubility": "> 500 mg/mL"}

----------
Tested on: HeLa cells
EXPERIMENT_DESCRIPTION: In vitro cytotoxicity, XTT, five days
SETUP_CONDITIONS: read-out: HeLa CC50; HeLa cells, XTT, five days

{"COMPOUND": "CCOC(=O)C(C)NP(=O)(COCCn1cnc2c(OC)nc(N)nc21)OCc1ccccc1 (mixture of isomers)", "UNITS_OF_MEASURE": "µM", "CC50": 18.6}

----------
EXPERIMENT_DESCRIPTION: Approximate solubility in solvents at 25° C. and 50° C. by visual observation
Assay type: physicochemical
SETUP_CONDITIONS: organic solvent or mixture, thermodynamic from solid; Dichloromethane (DCM), 25° C.; read-out: Solubility
Procedure: The maximum volume of each solvent added was 1 mL. Approximate solubility was determined by visual observation. Maximum volume of each solvent added was 1 mL. Approximate solubility was determined by visual observation.
PROPERTY_LABEL: Solubility

{"COMPOUND": "CCOC(=O)[C@H](C)NP(=O)(COCCn1cnc2c(OC)nc(N)nc21)OCc1ccccc1 (stereo partly shown) [Compound I]", "PROPERTY_LABEL": "Solubility", "RESULT": "> 100 mg/mL"}

----------
EXPERIMENT_DESCRIPTION: Approximate solubility in solvents at 25° C. and 50° C. by visual observation
Assay type: physicochemical
SETUP_CONDITIONS: organic solvent or mixture, thermodynamic from solid; Isopropyl acetate (IPAc), 25° C.; read-out: Solubility

{"COMPOUND": "CCOC(=O)[C@H](C)NP(=O)(COCCn1cnc2c(OC)nc(N)nc21)OCc1ccccc1 (stereo partly shown)", "Solubility": "> 100 mg/mL"}
